B1: PIP5K1C peptide 640-655 (Phosphatidylinositol 4-phosphate 5-kinase type-1 gamma), 16-mer library wild type / TLN1 PTB (TLN1 Phosphotyrosine-binding (PTB) domain, residues 309-401) (parent)
chain 1: FPTDERSWVYSPLHYS
chain 2: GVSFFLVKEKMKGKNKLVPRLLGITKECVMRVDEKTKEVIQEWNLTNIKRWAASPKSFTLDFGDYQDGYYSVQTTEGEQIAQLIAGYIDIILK

Variants of: B1
experimental protocol: proteomic peptide phage display deep mutational scan (ProP-PD DMS): M13 P8 16-mer library selected against immobilised GST-tagged bait for four days (rounds), NGS of the eluted pools per day and pseudo-replica
recorded conditions: with TLN1 PTB (TLN1 Phosphotyrosine-binding (PTB) domain, residues 309-401); bait immobilised on MaxiSorp plates (10 µg), library pre-cleared on GST, 2 h binding at 4 °C, five washes; one round per day, days 1-4; value from days 2 and 3; keep out of graded; scale: average fractional NGS count over selection days 2 and 3
Please enter condition met where screen value is greater than or equal to 0.0001, and condition not met where it is lower.

> print(dat)
                           sequence.content  assigned.category
 1  chain 1 FPTDERSWVYSPDHYS [chain 1 L13D]  condition not met
 2  chain 1 FPTDERSWVYSPLHYV [chain 1 S16V]      condition met
 3  chain 1 FPTDERSWVYSPLHYR [chain 1 S16R]      condition met
 4   chain 1 FPTDERSWKYSPLHYS [chain 1 V9K]      condition met
 5  chain 1 FPTDERSWVYSMLHYS [chain 1 P12M]  condition not met
 6  chain 1 FPTDERSWVYSPNHYS [chain 1 L13N]  condition not met
 7   chain 1 FPNDERSWVYSPLHYS [chain 1 T3N]  condition not met
 8   chain 1 FPTDERSWMYSPLHYS [chain 1 V9M]      condition met
 9  chain 1 FPTDERSWVYSPLYYS [chain 1 H14Y]      condition met
10  chain 1 FPTDERSWVYSPLLYS [chain 1 H14L]  condition not met
11  chain 1 FPTDERSWVYSPLKYS [chain 1 H14K]      condition met
12   chain 1 FPIDERSWVYSPLHYS [chain 1 T3I]  condition not met
13   chain 1 FPTDERSWLYSPLHYS [chain 1 V9L]      condition met
14   chain 1 FWTDERSWVYSPLHYS [chain 1 P2W]      condition met
15   chain 1 FPTDEESWVYSPLHYS [chain 1 R6E]  condition not met
16  chain 1 FPTDERSWVNSPLHYS [chain 1 Y10N]      condition met
17  chain 1 FPTDERSWVYSGLHYS [chain 1 P12G]      condition met
18   chain 1 FPTDEYSWVYSPLHYS [chain 1 R6Y]      condition met
19  chain 1 FPTDERSWVYSPLHAS [chain 1 Y15A]      condition met
20  chain 1 FPTDERSWVYSLLHYS [chain 1 P12L]      condition met
21  chain 1 FPTDERSWVDSPLHYS [chain 1 Y10D]      condition met
22   chain 1 FPTWERSWVYSPLHYS [chain 1 D4W]  condition not met
23   chain 1 FPTDERSWQYSPLHYS [chain 1 V9Q]      condition met
24   chain 1 FPTDLRSWVYSPLHYS [chain 1 E5L]      condition met
25   chain 1 FPTHERSWVYSPLHYS [chain 1 D4H]      condition met
26   chain 1 FDTDERSWVYSPLHYS [chain 1 P2D]      condition met
27  chain 1 FPTDERSWVYSPLWYS [chain 1 H14W]  condition not met
28  chain 1 FPTDERSWVYSPLHGS [chain 1 Y15G]      condition met
29   chain 1 FPTDERSWTYSPLHYS [chain 1 V9T]      condition met
30  chain 1 FPTDERSWVHSPLHYS [chain 1 Y10H]  condition not met
31  chain 1 FPTDERSWVYDPLHYS [chain 1 S11D]  condition not met
32   chain 1 FPTDEDSWVYSPLHYS [chain 1 R6D]      condition met
33  chain 1 FPTDERSWVYSPWHYS [chain 1 L13W]      condition met
34  chain 1 FPTDERSWVYSPLHYM [chain 1 S16M]      condition met
35   chain 1 FPTDERSWRYSPLHYS [chain 1 V9R]      condition met
36   chain 1 FPTDSRSWVYSPLHYS [chain 1 E5S]      condition met
37  chain 1 FPTDERSWVYSPLHHS [chain 1 Y15H]      condition met
38   chain 1 FPGDERSWVYSPLHYS [chain 1 T3G]  condition not met
39   chain 1 FPTDETSWVYSPLHYS [chain 1 R6T]      condition met
40  chain 1 FPTDERSWVYSPLHVS [chain 1 Y15V]      condition met
41   chain 1 FATDERSWVYSPLHYS [chain 1 P2A]  condition not met
42  chain 1 FPTDERSWVYPPLHYS [chain 1 S11P]  condition not met
43  chain 1 FPTDERSWVQSPLHYS [chain 1 Y10Q]      condition met
44   chain 1 FPTDERYWVYSPLHYS [chain 1 S7Y]      condition met
45   chain 1 FPTNERSWVYSPLHYS [chain 1 D4N]  condition not met
46  chain 1 FPTDERSWVYSPLHSS [chain 1 Y15S]      condition met
